These measurements were taken from ChEMBL document CHEMBL1134940.

Molecular target: Hepatitis C virus serine protease, NS3/NS4A (Hepatitis C virus, UniProt A3EZI9+D2K2A8)
Sequence (D2K2A8 whole entry): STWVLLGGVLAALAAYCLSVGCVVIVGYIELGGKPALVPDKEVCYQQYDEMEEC
Sequence (A3EZI9 whole entry): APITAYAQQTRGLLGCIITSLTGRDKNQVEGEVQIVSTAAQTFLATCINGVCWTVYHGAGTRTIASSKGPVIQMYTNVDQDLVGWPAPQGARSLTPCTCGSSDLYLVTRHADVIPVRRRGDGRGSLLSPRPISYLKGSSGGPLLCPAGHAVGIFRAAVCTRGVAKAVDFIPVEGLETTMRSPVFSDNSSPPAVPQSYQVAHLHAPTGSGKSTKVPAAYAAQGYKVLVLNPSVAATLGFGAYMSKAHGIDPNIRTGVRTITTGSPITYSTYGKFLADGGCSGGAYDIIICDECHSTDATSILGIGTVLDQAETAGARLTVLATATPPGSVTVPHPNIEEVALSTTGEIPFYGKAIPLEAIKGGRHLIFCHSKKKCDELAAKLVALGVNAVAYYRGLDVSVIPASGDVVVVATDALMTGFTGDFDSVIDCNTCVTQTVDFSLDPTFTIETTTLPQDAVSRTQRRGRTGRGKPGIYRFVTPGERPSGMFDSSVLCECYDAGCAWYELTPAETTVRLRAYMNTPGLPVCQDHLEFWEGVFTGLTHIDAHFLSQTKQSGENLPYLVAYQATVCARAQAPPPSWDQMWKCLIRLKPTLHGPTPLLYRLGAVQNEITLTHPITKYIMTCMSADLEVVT
Assay: Inhibition of HCV serine protease NS3/NS4A in the presence of EDTA.
Format: protein-complex assay, Hepacivirus hominis
Listed here: items and their measured Ki.

[[record]]
compound = "Cc1cccc2[nH]c(Cc3nc4ccc(C(=O)NC(CP(=O)(O)O)C(=O)O)cc4n3C)nc12 (centres undefined)"
reported_result = "> 300 µM"

[[record]]
compound = "CC(C)CCn1c(Cc2nc3ccccc3[nH]2)nc2ccc(C(=O)NC(CP(=O)(O)O)C(=O)O)cc21 (centres undefined)"
reported_result = "> 300 µM"


The reported Ki of the compound Cn1c(C(F)c2nc3ccccc3[nH]2)nc2ccc(C(=O)NC(CP(=O)(O)O)C(=O)O)cc21 (centres undefined) was 37 µM

The reported Ki of the compound CC(C)n1c(Cc2nc3ccccc3[nH]2)nc2ccc(C(=O)NC(CP(=O)(O)O)C(=O)O)cc21 (centres undefined) was > 300 µM

====

Listed here: items and their measured pKi.
Biological target: Hepatitis C virus serine protease, NS3/NS4A (Hepatitis C virus, UniProt A3EZI9+D2K2A8)
Assay: Inhibition of HCV serine protease NS3/NS4A in the presence of Zn
Type: protein-complex assay, Hepacivirus hominis
Conceptually, pKi converts a concentration in mol/L into minus its log10.

[[record]]
compound = "O=C(NC(CP(=O)(O)O)C(=O)O)c1ccc2nc(Cc3nc4ccccc4[nH]3)n(CC3CC3)c2c1 (stereo not given)"
assay_target = "Hepatitis C virus serine protease, NS3/NS4A (Hepatitis C virus, UniProt A3EZI9+D2K2A8)"
reported_result = 6.85


# ---- query compound ----
The reported pKi of the compound Cc1cccc2[nH]c(C(F)(F)c3nc4ccc(C(=O)NC(CP(=O)(O)O)C(=O)O)cc4n3C)nc12 (stereo not given) was 4.68

====

Biological target: Hepatitis C virus serine protease, NS3/NS4A (Hepatitis C virus, UniProt A3EZI9+D2K2A8)
Experiment: Inhibition of HCV serine protease NS3/NS4A in the presence of Zn
Assay type: protein-complex assay, Hepacivirus hominis
property.measured: pKi
Conceptually, pKi converts a concentration in mol/L into minus its log10.

[[record]]
molecule = "Cn1c(C(F)(F)c2nc3ccc(C(=O)NC(CP(=O)(O)O)C(=O)O)cc3[nH]2)nc2ccc(C(=O)NC(CP(=O)(O)O)C(=O)NC(CP(=O)(O)O)C(=O)O)cc21 (stereo unspecified)"
assay_target = "Hepatitis C virus serine protease, NS3/NS4A (Hepatitis C virus, UniProt A3EZI9+D2K2A8)"
reported_result = 7.57

[[record]]
molecule = "Cn1c(C(F)(F)c2nc3cc(F)c(F)cc3[nH]2)nc2ccc(C(=O)NC(CP(=O)(O)O)C(=O)O)cc21 (stereo unspecified)"
assay_target = "Hepatitis C virus serine protease, NS3/NS4A (Hepatitis C virus, UniProt A3EZI9+D2K2A8)"
reported_result = 5.40

[[record]]
molecule = "Cn1c(Cc2nc3ccc(C(N)=O)cc3[nH]2)nc2ccc(C(=O)NCC(=O)O)cc21"
assay_target = "Hepatitis C virus serine protease, NS3/NS4A (Hepatitis C virus, UniProt A3EZI9+D2K2A8)"
reported_result = 4.17

[[record]]
molecule = "Cn1c(C(F)(F)c2nc3c(F)cc(F)cc3[nH]2)nc2ccc(C(=O)NC(CP(=O)(O)O)C(=O)O)cc21 (stereo unspecified)"
assay_target = "Hepatitis C virus serine protease, NS3/NS4A (Hepatitis C virus, UniProt A3EZI9+D2K2A8)"
reported_result = 5.85

[[record]]
molecule = "COc1cccc2[nH]c(Cc3nc4ccc(C(=O)NC(CP(=O)(O)O)C(=O)O)cc4n3C)nc12 (stereo unspecified)"
assay_target = "Hepatitis C virus serine protease, NS3/NS4A (Hepatitis C virus, UniProt A3EZI9+D2K2A8)"
reported_result = 6.31

[[record]]
molecule = "COc1ccc2nc(Cc3nc4ccc(C(=O)NC(CP(=O)(O)O)C(=O)O)cc4n3C)[nH]c2c1 (stereo unspecified)"
assay_target = "Hepatitis C virus serine protease, NS3/NS4A (Hepatitis C virus, UniProt A3EZI9+D2K2A8)"
reported_result = 6.70


// returns pKi for COC(=O)C(CP(=O)(O)O)NC(=O)c1ccc2[nH]c(C(F)(F)c3nc4ccc(C(=O)NC(CP(=O)(O)O)C(=O)OC)cc4n3C)nc2c1 (stereo unspecified) with Hepatitis C virus serine protease, NS3/NS4A (Hepatitis C virus, UniProt A3EZI9+D2K2A8); value = 6.56

// returns pKi for Cn1c(Cc2nc3ccccc3[nH]2)nc2ccc(C(=O)NC(CP(=O)(O)O)C(=O)O)cc21 (stereo unspecified) with Hepatitis C virus serine protease, NS3/NS4A (Hepatitis C virus, UniProt A3EZI9+D2K2A8); value = 6.35

// returns pKi for CC(=O)NCc1nc2ccc(C(=O)NC(CP(=O)(O)O)C(=O)O)cc2n1C (stereo unspecified) with Hepatitis C virus serine protease, NS3/NS4A (Hepatitis C virus, UniProt A3EZI9+D2K2A8); value = 4.49

// returns pKi for Cn1c(Cc2nc3c(F)c(F)c(F)c(F)c3[nH]2)nc2ccc(C(=O)NC(CP(=O)(O)O)C(=O)O)cc21 (stereo unspecified) with Hepatitis C virus serine protease, NS3/NS4A (Hepatitis C virus, UniProt A3EZI9+D2K2A8); value = 6.55

// returns pKi for Cn1c(C(F)(F)c2nc3c(F)c(F)cc(F)c3[nH]2)nc2ccc(C(=O)NC(CP(=O)(O)O)C(=O)O)cc21 (stereo unspecified) with Hepatitis C virus serine protease, NS3/NS4A (Hepatitis C virus, UniProt A3EZI9+D2K2A8); value = 5.54

// returns pKi for Cn1c(C(F)(F)c2nc3ccc(Cl)cc3[nH]2)nc2ccc(C(=O)NC(CP(=O)(O)O)C(=O)O)cc21 (stereo unspecified) with Hepatitis C virus serine protease, NS3/NS4A (Hepatitis C virus, UniProt A3EZI9+D2K2A8); value = 5.62

// returns pKi for CC(C)n1c(Cc2nc3ccccc3[nH]2)nc2ccc(C(=O)NC(CP(=O)(O)O)C(=O)O)cc21 (stereo unspecified) with Hepatitis C virus serine protease, NS3/NS4A (Hepatitis C virus, UniProt A3EZI9+D2K2A8); value = 4.92

// returns pKi for CC(C)(C)Cn1c(Cc2nc3ccccc3[nH]2)nc2ccc(C(=O)NC(CP(=O)(O)O)C(=O)O)cc21 (stereo unspecified) with Hepatitis C virus serine protease, NS3/NS4A (Hepatitis C virus, UniProt A3EZI9+D2K2A8); value = 6.21

// returns pKi for CC(C)CCn1c(Cc2nc3ccccc3[nH]2)nc2ccc(C(=O)NC(CP(=O)(O)O)C(=O)O)cc21 (stereo unspecified) with Hepatitis C virus serine protease, NS3/NS4A (Hepatitis C virus, UniProt A3EZI9+D2K2A8); value = 6.06

// returns pKi for Cn1c(Cc2nc3c(F)c(F)c(F)cc3[nH]2)nc2ccc(C(=O)NC(CP(=O)(O)O)C(=O)O)cc21 (stereo unspecified) with Hepatitis C virus serine protease, NS3/NS4A (Hepatitis C virus, UniProt A3EZI9+D2K2A8); value = 6.70

====

Target: Hepatitis C virus serine protease, NS3/NS4A (Hepatitis C virus, UniProt A3EZI9+D2K2A8)
Assay: Inhibition of HCV serine protease NS3/NS4A in the presence of Zn
Format: protein-complex assay, Hepacivirus hominis
pKi: −log10 of the molar value.
The threshold is inclusive: pKi of exactly 6 counts as Condition met; values below receive Condition not met.

[[record]]
molecule = "Cc1cccc2[nH]c(Cc3nc4ccc(C(=O)NC(CP(=O)(O)O)C(=O)O)cc4n3C)nc12 (stereo not drawn)"
assay_target = "Hepatitis C virus serine protease, NS3/NS4A (Hepatitis C virus, UniProt A3EZI9+D2K2A8)"
classification = "Condition not met"

[[record]]
molecule = "CC(c1nc2ccc(C(N)=O)cc2[nH]1)c1nc2cc(C(=O)C(CP(=O)(O)O)C(=O)O)ccc2n1C (stereo not drawn)"
assay_target = "Hepatitis C virus serine protease, NS3/NS4A (Hepatitis C virus, UniProt A3EZI9+D2K2A8)"
classification = "Condition not met"

[[record]]
molecule = "Cn1c(Cc2nc3ccc(Cl)cc3[nH]2)nc2ccc(C(=O)NC(CP(=O)(O)O)C(=O)O)cc21 (stereo not drawn)"
assay_target = "Hepatitis C virus serine protease, NS3/NS4A (Hepatitis C virus, UniProt A3EZI9+D2K2A8)"
classification = "Condition met"

[[record]]
molecule = "Cn1c(Cc2nc3cc(F)c(F)cc3[nH]2)nc2ccc(C(=O)NC(CP(=O)(O)O)C(=O)O)cc21 (stereo not drawn)"
assay_target = "Hepatitis C virus serine protease, NS3/NS4A (Hepatitis C virus, UniProt A3EZI9+D2K2A8)"
classification = "Condition met"

[[record]]
molecule = "Cn1c(Cc2nc3c(F)cc(F)c(F)c3[nH]2)nc2ccc(C(=O)NC(CP(=O)(O)O)C(=O)O)cc21 (stereo not drawn)"
assay_target = "Hepatitis C virus serine protease, NS3/NS4A (Hepatitis C virus, UniProt A3EZI9+D2K2A8)"
classification = "Condition met"


Say whether Cn1c(Cc2nc3ccc(C(=O)NC(CP(=O)(O)O)C(=O)O)cc3n2C)nc2ccccc21 (stereo not drawn) shows pKi of 6 or more.
Condition not met

Say whether Cn1c(Cc2nc3c(F)c(F)ccc3[nH]2)nc2ccc(C(=O)NC(CP(=O)(O)O)C(=O)O)cc21 (stereo not drawn) shows pKi of 6 or more.
Condition met

Say whether Cn1c(Cc2nc3cc(C(F)(F)F)ccc3[nH]2)nc2ccc(C(=O)NC(CP(=O)(O)O)C(=O)O)cc21 (stereo not drawn) shows pKi of 6 or more.
Condition met

Say whether Cn1c(Cc2nc3ccc(O)cc3[nH]2)nc2ccc(C(=O)NC(CP(=O)(O)O)C(=O)O)cc21 (stereo not drawn) shows pKi of 6 or more.
Condition met

Say whether Cn1c(C(F)c2nc3ccccc3[nH]2)nc2ccc(C(=O)NC(CP(=O)(O)O)C(=O)O)cc21 (stereo not drawn) shows pKi of 6 or more.
Condition met

Say whether CC(C)Cn1c(Cc2nc3ccccc3[nH]2)nc2ccc(C(=O)NC(CP(=O)(O)O)C(=O)O)cc21 (stereo not drawn) shows pKi of 6 or more.
Condition met

Say whether Cn1c(Cc2nc3cc(F)ccc3[nH]2)nc2ccc(C(=O)NC(CP(=O)(O)O)C(=O)O)cc21 (stereo not drawn) shows pKi of 6 or more.
Condition met
